B1: Transcriptional repressor p66-beta, residues 415 to 455; numbered along this chain, Q8WXI9 (parent)
chain: VEPFVCAQCRTDFTPHWKQEKNGKILCEQCMTSNQKKALKA

- Variants of: B1
- protocol_description: abundance fitness (aPCA) (normalised: wild type 0, dead -1); higher = more abundant; growth selection in yeast, the domain comes from the species named
- measurement_setup: Homo sapiens
Use T when the recorded abundance fitness is no lower than -0.09; use F when it is lower.

[
  {
    "variant": "T14A",
    "class_name": "F"
  },
  {
    "variant": "A7L",
    "class_name": "F"
  },
  {
    "variant": "K37Q",
    "class_name": "T"
  },
  {
    "variant": "A41S",
    "class_name": "T"
  },
  {
    "variant": "C6L",
    "class_name": "F"
  },
  {
    "variant": "Q35C",
    "class_name": "F"
  },
  {
    "variant": "C27V",
    "class_name": "F"
  },
  {
    "variant": "M31P",
    "class_name": "F"
  },
  {
    "variant": "Q29Y",
    "class_name": "F"
  },
  {
    "variant": "Q35S",
    "class_name": "T"
  },
  {
    "variant": "K21P",
    "class_name": "T"
  },
  {
    "variant": "T11L",
    "class_name": "T"
  },
  {
    "variant": "G23D",
    "class_name": "T"
  },
  {
    "variant": "V1S",
    "class_name": "F"
  },
  {
    "variant": "L26N",
    "class_name": "F"
  },
  {
    "variant": "G23L",
    "class_name": "T"
  },
  {
    "variant": "K40P",
    "class_name": "T"
  },
  {
    "variant": "E2C",
    "class_name": "F"
  },
  {
    "variant": "P3G",
    "class_name": "T"
  },
  {
    "variant": "K37R",
    "class_name": "T"
  },
  {
    "variant": "N22S",
    "class_name": "T"
  },
  {
    "variant": "M31G",
    "class_name": "T"
  }
]
